# Protocol: chemical genetic growth profiling, strain panel (AID 1159580);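 note: tested at 20 µM; growth read once vehicle control cultures reached saturation at 30 °C; 1 = growth at the plate median or of vehicle wells; lower values mean less growth of the strain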
# Reported Conditions: S. cerevisiae deletion strains, growth OD, locus YPL241C, strain CIN2, active compounds read low
In all, about 5,500 compounds went through this assay and about 2,000 (36%) were called active. Inconclusive results (about 18%) are left out. Some of the results follow.
Value Kind: normalized growth

Answered cases to consult:
| Compound | Result |
| --- | --- |
| c1ccc2c3c([nH]c2c1)CNCC3 | 0.988 (inactive) |
| O=C(N/N=C\c1cccs1)c1ccccc1CO | 0.992 (inactive) |
| c1ccc2c(c1)CCc1c-2[nH]c2ccccc12 | 0.416 (active) |

Each compound below has a recorded value; state its normalized growth.
1. CN1CCN(C=Nc2ncc(C(F)(F)F)cc2Cl)CC1
2. O=C1C=CC2=C3c4cc(O)c(O)cc4CC3(O)COC2=C1O (stereo not drawn)
3. C[C@@]1(C2CCCC2)Cc2cc(OCC(=O)O)c(Cl)c(Cl)c2C1=O
4. N[C@@H](CCC(=O)N[C@H](CSN=O)C(=O)NCC(=O)O)C(=O)O

0.994 (inactive)
0.994 (inactive)
1.01 (inactive)
0.995 (inactive)

// input: 5 compounds below; output: normalized growth for each
1. O=C(O)CF
2. O=C(O)CCCCC1CCSS1 (stereo not drawn)
3. CC(=O)O[C@H]1C[C@@H](OC(C)=O)C(C)(C)C2C[C@@H](OC(C)=O)[C@@]3(C)C4=CC(=O)O[C@@H](c5ccoc5)[C@]4(C)CCC3[C@]21C (stereo partly drawn)
4. CCCC[C@@]1(C2CCCC2)Cc2cc(OCC(=O)O)c(Cl)c(Cl)c2C1=O
5. O=C(O)/C=C/c1cnc[nH]1

0.998 (inactive)
0.98 (inactive)
1.01 (inactive)
1 (inactive)
1.01 (inactive)

Fill in normalized growth for each of the 3 compounds listed.
1. Cc1c(Cl)cccc1NC(=S)Nc1ccc(Cl)cc1C(=O)c1ccccc1
2. C1CCN2CC3CC(CN4CCCCC34)C2C1 (stereo not drawn)
3. CC1(C)C(O)CC(O)C2(C)C1CC(O)C1(C)C2CCC2(C)C(c3ccoc3)CC3OC321 (stereo not drawn)

1: 0.969 (inactive); 2: 1.01 (inactive); 3: 0.997 (inactive)

###

# Protocol: chemical genetic growth profiling, strain panel (AID 1159580);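 note: tested at 20 µM; growth read once vehicle control cultures reached saturation at 30 °C; 1 = growth at the plate median or of vehicle wells; lower values mean less growth of the strain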
# Reported Conditions: S. cerevisiae deletion strains, growth OD, locus YPR163C, strain tif3, active compounds read low
About 2,000 (36%) of roughly 5,500 compounds were called active. About 18% were inconclusive and are not listed. This is one part of the list.
Value Kind: normalized growth

Recorded results for 5 compounds are shown here.
| Compound | normalized growth |
| --- | --- |
| CCCCC(CC)CN1CN(CC(CC)CCCC)CC(C)(N)C1 (stereo not drawn) | 0.178 (active) |
| CN1C(CC(=O)c2ccccc2)CCCC1CC(O)c1ccccc1 (stereo not drawn) | 0.981 (inactive) |
| Nc1ncnc2c1ncn2C1O[C@H](COP(=O)(O)O)[C@@H](O)[C@H]1O (stereo partly drawn) | 0.725 (active) |
| C[n+]1cccc(C(=O)[O-])c1 | 0.997 (inactive) |
| O=C1C=CC2=C3c4cc(O)c(O)cc4C[C@@]3(O)COC2=C1 | 1 (inactive) |

Value sought for every listed compound: normalized growth.
1. Nc1ccc(S(=O)(=O)Nc2ccc(Cl)nn2)cc1
2. Oc1ccc(Cl)c2cccnc12
3. NCC(O)c1ccc(O)cc1 (stereo not drawn)
4. O=c1[nH]c(=O)n(C2C[C@@H](O)[C@@H](CO)O2)cc1F (stereo partly drawn)
5. CC(=O)Oc1ccc(Cl)c2cccnc12
6. C=CC(C1=CC(=O)C(OC)=CC1=O)c1ccccc1 (stereo not drawn)
7. COC(=O)C[C@H]1C(C)(C)C(=O)[C@@H]2CC3=C4CC(=O)O[C@@H](c5ccoc5)[C@]4(C)CCC3[C@@]1(C)C2=O (stereo partly drawn)
8. O=C1CCCC2C3CC(CN12)[C@@H]1CCCCN1C3 (stereo partly drawn)

["1.01 (inactive)", "0.0744 (active)", "0.971 (inactive)", "1.01 (inactive)", "0.0706 (active)", "0.766 (active)", "1.01 (inactive)", "0.996 (inactive)"]

Give me normalized growth for each of these compounds, listed below.
1. C=C(CC)C(=O)c1ccc(OCC(=O)O)c(Cl)c1Cl
2. Oc1c(Cl)cc(Cl)c2cccnc12
3. C1CCN2C[C@@H]3C[C@H](CN4CCCC[C@@H]34)[C@H]2C1
4. CCC(Cc1c(I)cc(I)c(N)c1I)C(=O)O (stereo not drawn)
5. O=C(O)c1ccccc1Nc1cccc(C(F)(F)F)c1

1: 0.981 (inactive); 2: 0.074 (active); 3: 1 (inactive); 4: 1.01 (inactive); 5: 0.952 (inactive)

Parameter requested: normalized growth. Apply to each item below.
1. CO[C@H]1/C=C/O[C@@]2(C)Oc3c(C)c(O)c4c(O)c(c(/C=N/N5CCN(C)CC5)c(O)c4c3C2=O)NC(=O)/C(C)=C\C=C\C(C)[C@H](O)[C@@H](C)[C@@H](O)[C@@H](C)[C@@H](OC(C)=O)[C@@H]1C (stereo partly drawn)
2. COc1cc(OC)c2c(=O)c(-c3ccccc3)c(C)oc2c1OC
3. CC(=O)c1c(O)c(C)c(O)c2c1OC1=CC(=O)C(C(C)=O)C(=O)C12C (stereo not drawn)
4. OC[C@@H](O)[C@@H](O[C@@H]1O[C@H](CO)[C@@H](O)[C@H](O)[C@H]1O)[C@H](O)[C@@H](O)CO

1: 1.01 (inactive); 2: 0.992 (inactive); 3: 0.968 (inactive); 4: 1.01 (inactive)

State recorded normalized growth for all listed compounds.
1. CC(=O)Nc1ccc(S(=O)(=O)Nc2ccc([N+](=O)[O-])cc2)cc1
2. CCCC(C)C1(CC)C(=O)N=C(S)NC1=O (stereo not drawn)
3. Nc1nc2ncc(C(=O)O)nc2c(=O)[nH]1
4. Oc1c(I)cc(I)c2cccnc12
5. CCCCC1=NC2(CCCC2)C(=O)N1Cc1ccc(-c2ccccc2-c2nn[nH]n2)cc1

["1.01 (inactive)", "0.0717 (active)", "1.05 (inactive)", "0.107 (active)", "0.995 (inactive)"]
